Assignment: determine reported GI50 for the given molecules.
# Tested on: SF-539
# Assay explanation: NCI tumour cell line growth inhibition, 48 h
Activity calls are given as the source filed them. Cut-off read from the data, not from the text of the source: active = GI50 up to about 1.1 µM and inactive = higher.

response.value for "Cc1cc(NCc2ccccc2)c2ccccc2[n+]1CCCCCCCCCC[n+]1c(C)cc(NCc2ccccc2)c2ccccc21.[O-][Cl+3]([O-])([O-])[O-].[O-][Cl+3]([O-])([O-])[O-]" (field: GI50) = 0.308 µM (active)

Sample "Brc1ccc(-c2cc3c(cc2C2SCCS2)OCO3)cc1" ; GI50 observed: 11.5 µM (inactive)

Looking up COC1=C(Br)C(O)C2(C=C1Br)CC(C(=O)NCCCCNC(=O)C1=NOC3(C=C(Br)C(OC)=C(Br)C3O)C1)=NO2 (stereo not drawn) , I see its GI50 listed as 19.8 µM (inactive)

For "NS(=O)(=O)c1cc2c(cc1Cl)NC(C(=O)NNC(=O)c1ccncc1)=NS2(=O)=O" the molecule record lists GI50 as > 100 µM (inactive)

For record "COC(=O)c1ccc(Cc2cc(Cc3ccc(C(=O)OC)cc3)cc(Cc3ccc(C(=O)OC)cc3)c2)cc1" the listed GI50 is > 25 µM (inactive)

Quick note, GI50 for "CN(C)CCn1cnc2ncccc2c1=O" landed at > 100 µM (inactive)

Memo: "CC1=C(C)C(=O)O[C@@H]([C@](C)(O)[C@]2(O)CC[C@@]3(O)[C@@H]4C[C@H]5O[C@]56[C@@H](O)C=CC(=O)[C@]6(C)[C@H]4CC[C@]23C)C1" , reported GI50: 0.774 µM (active)

In plain terms, "COc1ccc(/C=C2\CCc3ccccc3C2=O)cc1OC" has a documented GI50 of 22.3 µM (inactive)
